# Tested on: OVCAR-8 ovarian
# EXPERIMENT NOTES: NCI-60 one-dose screen, 48 h (100 = growth as untreated, 0 = no growth, -100 = all killed)
# RUN CONDITIONS: 10 µM unless noted
This is part of a sample that, as a whole, favours compounds with a hit. Of some 83,000 tested, about 20% had one in any assay.
PROPERTY NAME: growth (%)
Write down the numeric answer in % and omit the unit.

Study these solved cases before continuing.
{"COMPOUND": "Cc1ccc2c(n1)C(=O)C(Cl)=C(Nc1ccc(C(C)C)cc1)C2=O", "MEASURED ON": "OVCAR-8 ovarian", "UNITS TEXT": "%", "growth": 8.76}
{"COMPOUND": "N#CC1=C2NCCCNc3oc(nc3C#N)Cc3ccccc3CC(=N1)O2", "MEASURED ON": "OVCAR-8 ovarian", "UNITS TEXT": "%", "growth": 97.4}

Query string: May I ask what growth has been recorded for CCCCCCCCCCCC(=O)NC(C)(C)C(=O)N1CCCC1C(=O)NC(C)(C)C(=O)NC(C)(C)C(=O)N1CCCC1C(=O)NC(C)(C)C(=O)NC(C)(C)C(=O)N1CCCC1C(=O)NC(C)C(=O)NCCC(=O)NC(C)C(=O)NC(C)(C)C(=O)NC(C)(C)C(=O)NC(C)(C)C(=O)NCCC(=O)NC(C)(C)C(=O)NC(C)(C)C(=O)NC(C)(C)C(=O)NC(C)C(=O)NCCC(=O)O (stereo not given) ?
Result string: -93.4

Query string: // repeat for CN1c2ccccc2Sc2cc(/C=N/Nc3ccnc4cc(Cl)ccc34)ccc21 and report
Result string: 60.5

Query string: // repeat for O=C(CSc1nc2ccccc2c(=O)n1-c1ccc(Cl)c(Cl)c1)Nc1ccc(S(=O)(=O)Nc2ccc(Cl)nn2)cc1 and report
Result string: 94

---

# Test system: HOP-62 NSCLC
# EXPERIMENT NOTES: NCI-60 one-dose screen, 48 h (100 = growth as untreated, 0 = no growth, -100 = all killed)
# RUN CONDITIONS: 10 µM unless noted
The panel holds about 83,000 compounds, 20% with a hit somewhere; the sample as a whole holds those more often. Calls of active or inactive are those of the source. The calls were made as follows: active = growth percent below 10; inactive = the rest.
PROPERTY NAME: growth

Study these solved cases before continuing.
{"COMPOUND": "CCc1nnc(NC(=O)c2cc(-c3ccc(Cl)cc3Cl)oc2C)s1", "RECORDED RESULT": "96% (inactive)"}
{"COMPOUND": "CCn1c2ccc(/C=N/N(C)S(=O)(=O)CCN(C)C)cc2c2cc(/C=N/N(C)S(=O)(=O)CCN(C)C)ccc21", "RECORDED RESULT": "101% (inactive)"}
{"COMPOUND": "COc1cc(-c2nc(-c3ccccc3)[nH]c2-c2ccnc(NCCCNS(=O)(=O)c3cccc(F)c3)n2)ccc1F", "RECORDED RESULT": "130% (inactive)"}
{"COMPOUND": "O=S(=O)(NCCCNc1nccc(-c2[nH]c(-c3ccccc3)nc2-c2ccc(F)c(O)c2)n1)c1cccc(F)c1", "RECORDED RESULT": "116% (inactive)"}
{"COMPOUND": "Cc1ccc2c(n1)C(=O)C(Cl)=C(Nc1cc(C(F)(F)F)cc(C(F)(F)F)c1)C2=O", "RECORDED RESULT": "118% (inactive)"}

Query string: May I ask what growth has been recorded for C=C1CCc2nc(SCC(=O)O)ccc2N1 ?
Result string: 103% (inactive)

Query string: // repeat for Clc1ccc2[nH]cc(-c3nn4cc(-c5ccncc5)nc4s3)c2c1 and report
Result string: 46.6% (inactive)

Query string: // repeat for O=C(CSc1nc2ccccc2c(=O)n1-c1ccccc1)Nc1ccc(S(=O)(=O)Nc2nccs2)cc1 and report
Result string: 80.4% (inactive)

Query string: // repeat for Cc1ccc(/C=N/Nc2nc(Nc3ccccc3)nc(Nc3ccc(S(N)(=O)=O)cc3)n2)cc1 and report
Result string: 86.8% (inactive)

Query string: // repeat for O=C(/C=C/c1ccc(Cl)c(Cl)c1)Nc1ncc(Cc2ccc(Cl)c(Cl)c2)s1 and report
Result string: 50.9% (inactive)

Query string: // repeat for CC(=O)c1c([Si](C)(C)C)c2cc(C#N)ccn2c1C(=O)c1ccc(Br)cc1 and report
Result string: 88.3% (inactive)

Query string: // repeat for Cn1cc(-c2nn3cc(-c4ccncc4)nc3s2)c2cc(Br)ccc21 and report
Result string: 71.6% (inactive)
